Source listed as patent US10710994B2.

Target: UniProtKB O75762
Assay: hTRPA1 CHO Ca2+ FLIPR Tetra assay: block of cinnamaldehyde induced calcium influx
Type: cell-based
Conditions: read-out: hTRPA1 IC50 10 min; CHO cells expressing TRPA1; 10 minutes incubation with compound before cinnamaldehyde (about EC80); Hill coefficient fixed to 1.5
Measured IC50 accompanies every entry in the list below.
Form entry: value (nM) — number only.

Worked examples follow.
{"columns": ["compound", "experimental.target", "unit.of.measure", "readout.number"],
 "data": [
  ["Cc1cnn2ncn(Cc3nc([C@@H]4CO[C@@H](c5ccc(F)cc5)C4)no3)c(=O)c12 [Example 66]", "UniProtKB O75762", "nM", 8.47],
  ["Cn1cnc2ncn(Cc3nc([C@@H]4CO[C@@H](c5ccc(Cl)cc5)C4)no3)c(=S)c21 [Example 59]", "UniProtKB O75762", "nM", 4.16],
  ["Cc1cnn2ncn(Cc3nc([C@@H]4CO[C@@H](c5ccc6ncsc6c5)C4)no3)c(=O)c12 [Example 142]", "UniProtKB O75762", "nM", 81.7]
]}

Exercise: Query: IC50; subject: O=C1CCc2c(ncn(Cc3nc([C@@H]4CO[C@@H](c5ccc(Cl)cc5)C4)no3)c2=O)N1 [Example 118]
Key: 96.4

====

// reported pIC50 for each item listed
Molecular target: human TRPA1 channel (Homo sapiens (Human))
Assay: hTRPA1 CHO Ca2+ FLIPR Tetra assay: block of cinnamaldehyde induced calcium influx
Assay type: cell-based
Conditions: read-out: hTRPA1 IC50 10 min; CHO cells expressing TRPA1; 10 minutes incubation with compound before cinnamaldehyde (about EC80); Hill coefficient fixed to 1.5
Scale for pIC50: -log10 of concentration given in mol/L; no unit attached.

Some molecules with recorded pIC50:
{"columns": ["molecule", "pIC50"],
 "data": [
  ["Cc1cc(=O)nc2ccn(Cc3nc([C@@H]4CO[C@@H](c5ccc(Cl)cc5)C4)no3)c(=O)n12 [Example 63]", 8.03],
  ["Cn1cnc2c(C(N)=O)nn(Cc3nc([C@@H]4CO[C@@H](c5ccc(Cl)cc5)C4)no3)c(=O)c21 [Example 116]", 7.12],
  ["O=c1c2cccnc2cnn1Cc1nc([C@@H]2CO[C@@H](c3ccc(Cl)cc3)C2)no1 [Example 24]", 8.14]
]}

Exercise: Please report the recorded pIC50 for Cn1c(N)nc2ncn(Cc3nc([C@@H]4CO[C@@H](c5ccc(Cl)cc5)C4)no3)c(=O)c21 [Example 26] .
Key: 7.23

====

Target: human TRPA1 channel (Homo sapiens (Human), UniProt O75762)
Sequence (O75762 whole entry): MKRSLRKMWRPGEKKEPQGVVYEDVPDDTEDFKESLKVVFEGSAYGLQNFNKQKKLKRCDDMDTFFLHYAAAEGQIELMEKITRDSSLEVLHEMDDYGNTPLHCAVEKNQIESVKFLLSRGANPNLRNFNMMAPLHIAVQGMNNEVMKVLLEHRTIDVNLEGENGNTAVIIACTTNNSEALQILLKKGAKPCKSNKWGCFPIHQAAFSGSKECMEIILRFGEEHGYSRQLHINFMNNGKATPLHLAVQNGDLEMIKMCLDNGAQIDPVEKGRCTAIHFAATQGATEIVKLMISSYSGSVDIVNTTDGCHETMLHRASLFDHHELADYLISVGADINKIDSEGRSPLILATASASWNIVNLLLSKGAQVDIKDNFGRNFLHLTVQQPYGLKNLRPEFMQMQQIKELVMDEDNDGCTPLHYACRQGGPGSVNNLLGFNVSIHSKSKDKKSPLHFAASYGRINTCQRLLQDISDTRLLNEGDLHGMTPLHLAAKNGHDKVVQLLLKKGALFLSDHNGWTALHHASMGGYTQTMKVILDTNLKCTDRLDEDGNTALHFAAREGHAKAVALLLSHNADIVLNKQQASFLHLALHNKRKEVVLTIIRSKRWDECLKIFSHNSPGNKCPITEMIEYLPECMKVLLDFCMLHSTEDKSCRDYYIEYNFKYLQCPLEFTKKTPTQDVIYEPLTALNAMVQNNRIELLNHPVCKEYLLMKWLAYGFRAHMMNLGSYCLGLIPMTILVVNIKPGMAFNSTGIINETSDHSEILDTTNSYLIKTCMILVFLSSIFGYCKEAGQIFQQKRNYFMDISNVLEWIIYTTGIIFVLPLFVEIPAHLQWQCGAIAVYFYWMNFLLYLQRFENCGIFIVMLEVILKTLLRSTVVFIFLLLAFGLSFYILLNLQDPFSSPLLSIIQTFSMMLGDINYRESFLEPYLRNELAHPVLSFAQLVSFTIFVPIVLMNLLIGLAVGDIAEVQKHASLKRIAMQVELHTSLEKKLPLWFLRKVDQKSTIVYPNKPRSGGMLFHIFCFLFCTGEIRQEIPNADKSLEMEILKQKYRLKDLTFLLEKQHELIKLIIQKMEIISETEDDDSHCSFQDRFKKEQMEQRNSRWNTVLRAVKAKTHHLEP
Assay: hTRPA1 CHO Ca2+ FLIPR Tetra assay: block of cinnamaldehyde induced calcium influx
Format: cell-based
Details: read-out: hTRPA1 IC50 10 min; CHO cells expressing TRPA1; 10 minutes incubation with compound before cinnamaldehyde (about EC80); Hill coefficient fixed to 1.5
Below is a list of entries, each paired with its recorded pIC50 value.
API: returns pIC50 as number; meaning -log10 of concentration in mol/L.

{"columns": ["molecular.string", "pIC50"],
 "data": [
  ["Cn1cnc2cnn(Cc3nc([C@@H]4CO[C@@H](c5ccc(Cl)cc5)C4)no3)c(=O)c21", 7.41]
]}

Exercise: Fill blank: measured pIC50 of the compound Cn1cnc2ncn(Cc3nc([C@@H]4CO[C@@H](c5ccc(OC(F)F)cc5)C4)no3)c(=O)c21 is ____.
Key: 6.82

Exercise: Request: Nc1nc2ncccc2c(=O)n1Cc1nc([C@@H]2CO[C@@H](c3ccc(F)cc3)C2)no1
Key: 7.73

Exercise: # iterate: COc1nccc2c(=O)n(Cc3nc([C@@H]4CO[C@@H](c5ccc(Cl)cc5)C4)no3)cnc12
Key: 7.02

Exercise: Another: Cn1c(=O)[nH]c2ncn(Cc3nc([C@@H]4CO[C@@H](c5ccc(Cl)cc5)C4)no3)c(=O)c21
Key: 7.39

Exercise: Then this compound: Cc1ccc([C@H]2C[C@H](c3noc(Cn4cnc5ncn(C)c5c4=O)n3)CO2)cc1
Key: 7.79

Exercise: Entry to check: Cc1nc2[nH]c(=O)n(C)c2c(=O)n1Cc1nc([C@@H]2CO[C@@H](c3ccc(Cl)cc3)C2)no1
Key: 7.07

Exercise: How about this compound: Cc1cncc2ncn(Cc3nc([C@@H]4CO[C@@H](c5ccc(F)cc5)C4)no3)c(=O)c12
Key: 7.97

Exercise: Param item: Cn1cnc2nc(N)n(Cc3nc([C@@H]4CO[C@@H](c5ccc(Cl)cc5)C4)no3)c2c1=O
Key: 6.90

Exercise: Further, for Cn1nnc2ccn(Cc3nc([C@@H]4CO[C@@H](c5ccc(Cl)cc5)C4)no3)c(=O)c21 ?
Key: 8.33

Exercise: Next entry: Cn1cnc2ncn(Cc3nc([C@@H]4CO[C@@H](c5ccc(S(F)(F)(F)(F)F)cc5)C4)no3)c(=O)c21
Key: 5.81

Exercise: Same read-out for Cn1cnc2ncn(Cc3nc([C@@H]4CO[C@@H](c5ccc(F)c(Cl)c5)C4)no3)c(=O)c21 ?
Key: 7.79

Exercise: Field entry: Cn1cnc2ncn(Cc3nc([C@@H]4CO[C@@H](c5cccc(F)c5)C4)no3)c(=O)c21
Key: 7.56

Exercise: Thanks! And Cn1ncc2nc(N)n(Cc3nc([C@@H]4CO[C@@H](c5ccc(Cl)cc5)C4)no3)c(=O)c21 ?
Key: 8.50

====

Biological target: human TRPA1 channel (Homo sapiens (Human), UniProt O75762)
Experiment: hTRPA1 CHO Ca2+ FLIPR Tetra assay: block of cinnamaldehyde induced calcium influx
Format: cell-based
Conditions: hTRPA1 IC50 90 min, CHO cells expressing TRPA1; 90 minutes incubation with compound before cinnamaldehyde (about EC80); Hill coefficient fixed to 1.5
Recorded pIC50 for the following molecules
// field semantics: pIC50 = negative decimal log of concentration (mol/L)

Example cases with answers are listed next.
{"columns": ["molecule", "pIC50"],
 "data": [
  ["COc1ccc([C@H]2C[C@H](c3noc(Cn4cnc5ncn(C)c5c4=O)n3)CO2)cc1", 7.17],
  ["Cc1nn(C)c2ncn(Cc3nc([C@@H]4CO[C@@H](c5ccc(Cl)cc5)C4)no3)c(=O)c12 (racemic)", 7.48],
  ["O=c1c2c(Cl)ccnc2ncn1Cc1nc([C@@H]2CO[C@@H](c3ccc(F)cc3)C2)no1 (racemic)", 7.82]
]}

Exercise: What value of pIC50 has been recorded for this entry: Nc1nc2ncsc2c(=O)n1Cc1nc([C@@H]2CO[C@@H](c3ccc(F)cc3)C2)no1 (racemic)
Key: 8.64

Exercise: Cc1nc2nc(N)n(C)c2c(=O)n1Cc1nc([C@@H]2CO[C@@H](c3ccc(Cl)cc3)C2)no1 (racemic) ?
Key: 7.85

Exercise: Request: Cc1nc(Cl)n2ncn(Cc3nc([C@@H]4CO[C@@H](c5ccc(Cl)cc5)C4)no3)c(=O)c12 (racemic)
Key: 7.89

Exercise: Next record, please: Cn1c(=O)oc2ncn(Cc3nc([C@@H]4CO[C@@H](c5ccc(Cl)cc5)C4)no3)c(=O)c21 (racemic)
Key: 8.74

Exercise: Could you do the same for O=c1ccn2c(=O)n(Cc3nc([C@@H]4CO[C@@H](c5ccc(Cl)cc5)C4)no3)ccc2n1 (racemic) , please?
Key: 8.14

Exercise: Now the same for Cc1cnn2ncn(Cc3nc([C@@H]4CO[C@@H](c5ccc(Cl)cn5)C4)no3)c(=O)c12 (racemic)
Key: 6.82

Exercise: Ok, now Cn1nnc2ccn(Cc3nc([C@@H]4CO[C@@H](c5ccc(F)cc5)C4)no3)c(=O)c21 (racemic)
Key: 8.25

Exercise: Field entry: Cn1nnc2nc(N)n(Cc3nc([C@@H]4CO[C@@H](c5ccc(Cl)cc5)C4)no3)c(=O)c21 (racemic)
Key: 8.68

====

Molecular target: human TRPA1 channel (Homo sapiens (Human), UniProt O75762)
Assay: hTRPA1 CHO Ca2+ FLIPR Tetra assay: block of cinnamaldehyde induced calcium influx
Format: cell-based
Conditions: read-out: hTRPA1 IC50 10 min; CHO cells expressing TRPA1; 10 minutes incubation with compound before cinnamaldehyde (about EC80); Hill coefficient fixed to 1.5
Could you please mark 1 for values of IC50 below 30 nM and -1 for values at or above it?

{"columns": ["molecular.string", "group.label"],
 "data": [
  ["Cn1cnc2c(C#N)nn(Cc3nc([C@@H]4CO[C@@H](c5ccc(Cl)cc5)C4)no3)c(=O)c21", 1],
  ["Cn1c(NCc2ccccn2)nc2ncn(Cc3nc([C@@H]4CO[C@@H](c5ccc(Cl)cc5)C4)no3)c(=O)c21", -1],
  ["Cn1c(=O)ccc2ncn(Cc3nc([C@@H]4CO[C@@H](c5ccc(Cl)cc5)C4)no3)c(=O)c21", 1]
]}

Exercise: Please indicate whether the reported IC50 of Nc1nc2ncn(Cc3nc([C@@H]4CO[C@@H](c5ccc(F)cc5)C4)no3)c(=O)c2s1 is strictly below 30 nM.
Key: -1

Exercise: Subsequent entry: Cn1cnc2ncn(Cc3nc([C@@H]4CO[C@@H](c5ccc(OC(F)(F)F)cc5)C4)no3)c(=O)c21
Key: -1
